All values here come from patent US20210070843A1.

Measured max. MFI, listed per entry.
- test-system: full-length H1 A/California/07/2009 HA expressed on 293T cells (influenza A virus A/California/07/2009 (H1N1))
- method-description: flow cytometry, HA-expressing 293T

binder	max. MFI / MFI
P03 (antibody, V domains shown) VH: EVQLVESGGGLVQPGGSLRLSCAASGFTIDSFGIHWVRQAPGKGLEWVAFIGPFGGSTFYADSVKGRFTISADTSKNTAYLQMNSLRAEDTAVYYCARFDSNSYSYHGIMDYWGQGTLVTVSS VL: DIQMTQSPSSLSASVGDRVTITCRASQDVWGYVAWYQQKPGKAPKLLISWSGSLYSGVPSRFSGSGSGTDFTLTISSLQPEDFATYYCQQYYNWPVTFGQGTKVEIKR	6020
P14 (antibody, V domains shown) VH: EVQLVESGGGLVQPGGSLRLSCAASGFTIGDFGIHWVRQAPGKGLEWVAGIWPFGGYTYYADSVKGRFTISADTSKNTAYLQMNSLRAEDTAVYYCARFVNWDGDYMDYWGQGTLVTVSS VL: DIQMTQSPSSLSASVGDRVTITCRASQDVGFYVAWYQQKPGKAPKLLISWSSYLYSGVPSRFSGSGSGTDFTLTISSLQPEDFATYYCQQYYNYPLTFGQGTKVEIKR	8340
P48 (antibody, V domains shown) VH: EVQLVESGGGLVQPGGSLRLSCAASGFTINSWGIHWVRQAPGKGLEWVAGIGPSWGYTSYADSVKGRFTISADTSKNTAYLQMNSLRAEDTAVYYCARFGDGDFDLMDYWGQGTLVTVSS VL: DIQMTQSPSSLSASVGDRVTITCRASQDVWSYVAWYQQKPGKAPKLLISYTSYLYSGVPSRFSGSGSGTDFTLTISSLQPEDFATYYCQQYFNWPITFGQGTKVEIKR	7860
S11 (antibody, V domains shown) VH: EVQLVESGGGLVQPGGSLRLSCAASGFTIDNGGIHWVRQAPGKGLEWVAWIGPYGGSTSYADSVKGRFTISADTSKNTAYLQMNSLRAEDTAVYYCARFGFGLHDLMDYWGQGTLVTVSS VL: DIQMTQSPSSLSASVGDRVTITCRASQDVYSWVAWYQQKPGKAPKLLIYYSSFLYSGVPSRFSGSGSGTDFTLTISSLQPEDFATYYCQQYYNGPLTFGQGTKVEIKR	5600
P44 (antibody, V domains shown) VH: EVQLVESGGGLVQPGGSLRLSCAASGFTIDGWWIHWVRQAPGKGLEWVAGIWPFGGFTSYADSVKGRFTISADTSKNTAYLQMNSLRAEDTAVYYCARSYSGYSGDYWGQGTLVTVSS VL: DIQMTQSPSSLSASVGDRVTITCRASQDVNNNVAWYQQKPGKAPKLLIYWSSSLYSGVPSRFSGSGSGTDFTLTISSLQPEDFATYYCQQYYNFPVTFGQGTKVEIKR	8480
